target: Cathepsin S (UniProt P25774 115-331); experiment: fluorescence-based enzyme inhibition assay
Sequence (P25774 115-331 limits assumed): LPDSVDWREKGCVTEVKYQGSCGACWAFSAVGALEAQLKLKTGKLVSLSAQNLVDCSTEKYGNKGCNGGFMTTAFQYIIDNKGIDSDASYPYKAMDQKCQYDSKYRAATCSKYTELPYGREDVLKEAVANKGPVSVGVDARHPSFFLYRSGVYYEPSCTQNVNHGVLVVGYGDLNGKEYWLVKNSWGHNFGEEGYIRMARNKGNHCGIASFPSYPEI
Positions of bridges follow the written chain, without caps; N, C: chain ends. No end group written: not given here. alpha,alpha'‑meta‑xylylene = alpha,alpha'-meta-xylylene linker (from a,a'-dibromo-meta-xylene) bridging two cysteines via bis-thioether
# Ki values compiled below
metric: Ki

QCEVVCKMTGL (linker 2-6 via alpha,alpha'‑meta‑xylylene) [QCEVVCKMTGL (SEQ ID NO:34)]    43.5 µM
SCESVCKMTGL (linker 2-6 via alpha,alpha'‑meta‑xylylene) [SCESVCKMTGL (SEQ ID NO:37)]    10.8 µM
SCEVVCKPTGL (linker 2-6 via alpha,alpha'‑meta‑xylylene) [SCEVVCKPTGL (SEQ ID NO:39)]    58.3 µM
SCEVVCKMTGP (linker 2-6 via alpha,alpha'‑meta‑xylylene) [SCEVVCKMTGP (SEQ ID NO:44)]    27.8 µM
